Give protein stability index for every item shown.
B1: ESRRA (parent)
chain: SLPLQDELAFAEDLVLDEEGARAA

Variants of: B1
assay.comment: protein stability index of a GFP-peptide fusion (GPS, HEK-293T) (PSI 1-6); higher = more stable;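 also: lentivirally expressed fusions sorted by FACS into six bins by GFP to DsRed ratio, PSI derived from sequencing read proportions per bin multiplied by bin number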
reported.conditions: c terminus: a fixed tail appended
Numbers only.

>  <variant.annotation>
E19S

>  <protein stability index>
2.79

$$$$

For each of the variants below, state protein stability index.
1. A11C
2. E19H
3. E18C
4. E7G
5. D17C

[A]
1. 5.35
2. 2.33
3. 2.31
4. 5.2
5. 2.78
